target_entity: p34^cdc2/cyclin B (CDC2) (Homo sapiens, UniProt P06493)
Sequence (P06493 whole entry, species assumed): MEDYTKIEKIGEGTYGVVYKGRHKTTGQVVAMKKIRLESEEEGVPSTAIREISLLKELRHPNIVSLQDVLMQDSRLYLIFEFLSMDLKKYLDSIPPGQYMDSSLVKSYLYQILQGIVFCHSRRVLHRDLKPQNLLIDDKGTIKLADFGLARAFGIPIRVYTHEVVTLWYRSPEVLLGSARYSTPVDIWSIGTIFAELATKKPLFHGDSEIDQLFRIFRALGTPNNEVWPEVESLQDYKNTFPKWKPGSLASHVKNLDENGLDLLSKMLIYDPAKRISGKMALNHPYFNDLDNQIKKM
Sequence (P14635 whole entry partner, species assumed): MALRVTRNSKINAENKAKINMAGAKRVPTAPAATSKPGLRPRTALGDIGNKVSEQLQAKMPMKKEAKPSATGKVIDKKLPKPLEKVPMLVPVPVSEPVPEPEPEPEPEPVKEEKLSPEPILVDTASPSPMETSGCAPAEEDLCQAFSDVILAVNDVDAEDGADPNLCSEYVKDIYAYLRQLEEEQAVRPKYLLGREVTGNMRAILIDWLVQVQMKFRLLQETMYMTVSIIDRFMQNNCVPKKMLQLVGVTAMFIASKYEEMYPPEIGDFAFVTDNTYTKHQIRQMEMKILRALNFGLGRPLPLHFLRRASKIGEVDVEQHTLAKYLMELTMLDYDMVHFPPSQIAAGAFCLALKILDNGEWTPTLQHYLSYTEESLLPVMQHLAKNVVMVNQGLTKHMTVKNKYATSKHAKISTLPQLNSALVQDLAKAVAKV
assay: CDK inhibition assay, p34cdc2/cyclin B kinase, histone H1 phosphorylation
Description: Cyclin-dependent kinases (p34^cdc2, p33^cdk2) and cyclins (cyclin B, E) are produced in Sf9 insect cells coinfected with appropriate baculoviral constructs. […] The p34^cdc2 and p33^cdk2 kinase inhibition determination involves the use of 1 mg/ml histone H1 (Sigma, type III-S) in the presence of 15 μM [γ-^32P]ATP ([…]) (Amersham) in a final volume of 20 μl. Kinase activity is determined at 30° C. in the kinase buffer. […]
pIC50: −log10 of the molar value.
measurement_name: pIC50

- CC[C@H](CO)Nc1nc(NCc2ccccc2OC(C)=O)c2nnn(C(C)C)c2n1: 4.72
- CC[C@H](CO)Nc1nc(NCc2ccccc2C(C)=O)c2nnn(C(C)C)c2n1: 4.43
- COc1cc(O)c(CNc2nc(NCCO)nc3c2nnn3C)c(O)c1: 4.74
- CC[C@H](CO)Nc1nc(NCc2cc(O)c(Cl)cc2O)c2nnn(C(C)C)c2n1: 4.80
- CC(=O)Oc1ccccc1CNc1nc(N[C@@H](CO)C(C)C)nc2c1nnn2C(C)C: 5.00
- Cn1nnc2c(NCc3c(N)cccc3Cl)nc(NCCO)nc21: 4.28
- CC(C)n1nnc2c(NCc3ccccc3)nc(N(CCO)CCO)nc21: 4.02
- CC[C@H](CO)Nc1nc(NCc2cccc(OC(C)=O)c2)c2nnn(C(C)C)c2n1: 4.62
- Cn1nnc2c(NCc3ccccc3O)nc(NCCO)nc21: 4.64
- CC[C@H](CO)Nc1nc(NCc2ccc(Cl)c(N)c2)c2nnn(C(C)C)c2n1: 4.54
- CC(C)[C@H](CO)Nc1nc(Nc2ccc(Cl)c(C(=O)O)c2)c2nnn(C(C)C)c2n1: 4.52
- Cc1cccc(CNc2nc(N[C@@H](CO)C(C)C)nc3c2nnn3C(C)C)c1O: 4.74
- CC[C@H](CO)Nc1nc(NCc2cccc(C)c2O)c2nnn(C(C)C)c2n1: 4.47
- CC(C)[C@H](CO)Nc1nc(NCc2cccc(Cl)c2O)c2nnn(C(C)C)c2n1: 4.49
- CC(C)n1nnc2c(Nc3cccc(Cl)c3)nc(N(CCO)CCO)nc21: 4.46
- CC(C)[C@H](CO)Nc1nc(NCc2ccc(Cl)c(N)c2N)c2nnn(C(C)C)c2n1: 4.47
- Cc1cccc(CNc2nc(NCCO)nc3c2nnn3C)c1O: 4.07
- CC[C@H](CO)Nc1nc(Nc2cccc(Cl)c2)c2nnn(C(C)C)c2n1: 4.46
- Cn1nnc2c(Nc3ccc(C(=O)O)c(Cl)c3)nc(NCCO)nc21: 4.28
- CC[C@H](CO)Nc1nc(NCc2c(N)cccc2Cl)c2nnn(C(C)C)c2n1: 4.51
